Source of measurements: the supplement of paper PMC8728848

Tested target: GalNAc(a1-3)GalNAc(a1-3)Gal(a1-4)Gal(b1-4)GlcNAc
Assay comment: glycan array binding signal (z-score within array); higher = stronger binding
Condition description: glycan notation: IUPAC condensed, linker removed
This excerpt belongs to a sample that is enriched for the strongest signals.
Property measured: glycan array binding signal (z-score)

binder="DBA (Dolichos biflorus) (protein) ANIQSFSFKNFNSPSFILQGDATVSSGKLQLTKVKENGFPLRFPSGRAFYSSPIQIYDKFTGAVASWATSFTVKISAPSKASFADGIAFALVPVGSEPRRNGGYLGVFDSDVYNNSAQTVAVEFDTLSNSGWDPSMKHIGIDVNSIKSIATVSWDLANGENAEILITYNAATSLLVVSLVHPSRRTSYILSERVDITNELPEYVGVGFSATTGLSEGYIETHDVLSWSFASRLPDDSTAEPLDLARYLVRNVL" property_measured="glycan array binding signal (z-score)" readout_number=12.5
binder="PILRa (Homo sapiens), Q9UKJ1 (protein) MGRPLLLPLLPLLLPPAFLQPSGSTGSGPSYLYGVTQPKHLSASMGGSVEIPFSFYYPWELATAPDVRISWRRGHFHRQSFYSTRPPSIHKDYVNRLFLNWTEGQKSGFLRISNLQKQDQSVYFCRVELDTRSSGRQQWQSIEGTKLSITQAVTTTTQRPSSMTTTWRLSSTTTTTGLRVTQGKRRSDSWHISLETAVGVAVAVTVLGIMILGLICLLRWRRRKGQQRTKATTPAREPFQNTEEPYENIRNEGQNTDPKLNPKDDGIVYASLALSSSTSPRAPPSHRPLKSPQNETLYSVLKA" property_measured="glycan array binding signal (z-score)" readout_number=-0.27
binder="GSL-I (Griffonia simplicifolia) (protein) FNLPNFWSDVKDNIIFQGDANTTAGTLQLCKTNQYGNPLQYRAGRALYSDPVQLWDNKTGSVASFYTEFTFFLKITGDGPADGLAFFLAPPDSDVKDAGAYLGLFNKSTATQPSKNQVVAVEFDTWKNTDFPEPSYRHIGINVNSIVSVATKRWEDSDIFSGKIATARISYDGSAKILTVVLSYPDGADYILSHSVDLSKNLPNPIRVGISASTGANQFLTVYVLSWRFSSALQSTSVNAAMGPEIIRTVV" property_measured="glycan array binding signal (z-score)" readout_number=1.85
binder="Gal 9 (Homo sapiens), O00182 (protein) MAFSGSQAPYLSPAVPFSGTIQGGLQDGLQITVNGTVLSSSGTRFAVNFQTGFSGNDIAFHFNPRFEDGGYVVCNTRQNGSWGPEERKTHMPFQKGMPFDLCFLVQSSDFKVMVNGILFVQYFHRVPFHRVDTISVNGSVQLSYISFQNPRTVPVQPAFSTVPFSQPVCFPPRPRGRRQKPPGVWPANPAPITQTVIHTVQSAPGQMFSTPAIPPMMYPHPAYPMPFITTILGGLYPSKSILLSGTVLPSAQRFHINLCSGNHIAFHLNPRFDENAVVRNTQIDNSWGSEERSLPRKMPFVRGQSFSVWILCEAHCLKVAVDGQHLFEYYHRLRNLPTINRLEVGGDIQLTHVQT" property_measured="glycan array binding signal (z-score)" readout_number=0.672
binder="Clrb (Mus musculus) (protein) ITGATKTEQIPVNKTYAACPQNWIGVENKCFYFSEYPSNWTFAQAFCMAQEAQLARFDNQDELNFLMRYKANFDSWIGLHRESSEHPWKWTDNTEYNNTIPIRGEERFAYLNNNGISSTRIYSLRMWICSKLNSYSLHCQTPFFPSGTKHHHHHHHHG" property_measured="glycan array binding signal (z-score)" readout_number=-0.541
binder="UEA-I (Ulex europaeus), P22972 (protein) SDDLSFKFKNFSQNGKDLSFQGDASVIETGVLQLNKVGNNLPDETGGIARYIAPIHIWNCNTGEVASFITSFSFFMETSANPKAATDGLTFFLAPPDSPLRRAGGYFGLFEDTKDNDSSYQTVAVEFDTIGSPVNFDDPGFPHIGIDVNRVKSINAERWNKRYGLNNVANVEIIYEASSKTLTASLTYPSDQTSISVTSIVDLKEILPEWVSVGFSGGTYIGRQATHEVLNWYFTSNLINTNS" property_measured="glycan array binding signal (z-score)" readout_number=-0.179
